# Target Or Test System: Hypoxanthine-guanine phosphoribosyltransferase (Homo sapiens, UniProt P00492)
# Sequence (P00492 whole entry): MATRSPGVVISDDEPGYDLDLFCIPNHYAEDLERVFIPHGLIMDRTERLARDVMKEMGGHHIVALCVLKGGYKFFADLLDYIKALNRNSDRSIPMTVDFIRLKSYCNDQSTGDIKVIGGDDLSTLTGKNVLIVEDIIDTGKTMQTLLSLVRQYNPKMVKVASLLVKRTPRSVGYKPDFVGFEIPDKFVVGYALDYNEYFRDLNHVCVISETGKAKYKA
# Run Description: Inhibition of human HGPRT
pKi: −log10 of the molar value.
Attribute Measured: pKi

| Input Smiles | pKi |
| --- | --- |
| Nc1nc2c(ncn2CCCCCCP(=O)(O)O)c(=O)[nH]1 | 6.30 |
| Nc1nc(O)c2ncn(COCCP(=O)(O)O)c2n1 | 4.51 |
| O=c1[nH]cnc2c1ncn2CCP(=O)(O)O | 5.47 |
| O=c1[nH]cnc2c1ncn2COCCCCP(=O)(O)O | 4.55 |
| O=c1[nH]cnc2c1ncn2COCCP(=O)(O)O | 4.25 |

P: Nc1nc(O)c2ncn(CCCCCP(=O)(O)O)c2n1
Q: Nc1nc(O)c2ncn(CCCCCCCP(=O)(O)O)c2n1
Input line: Name the one with the greater pKi value, either P or Q as given. // return label of chosen record
Output line: P
(P: 6.30, Q: 5.30)

* * *

# Target Or Test System: Hypoxanthine-guanine phosphoribosyltransferase (Homo sapiens, UniProt P00492)
# Sequence (P00492 whole entry): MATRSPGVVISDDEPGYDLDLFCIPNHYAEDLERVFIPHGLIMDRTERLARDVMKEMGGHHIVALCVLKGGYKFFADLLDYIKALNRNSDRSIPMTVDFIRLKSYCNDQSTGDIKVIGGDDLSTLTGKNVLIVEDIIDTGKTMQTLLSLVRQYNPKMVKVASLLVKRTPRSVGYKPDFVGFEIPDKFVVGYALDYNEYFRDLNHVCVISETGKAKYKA
# Run Description: Inhibition of human HGPRT
Attribute Measured: Ki (µM)

I: Nc1nc(O)c2ncn(COCCCCP(=O)(O)O)c2n1
II: Nc1nc(O)c2ncn(CCCCP(=O)(O)O)c2n1
III: O=c1[nH]cnc2c1ncn2CCCCCCP(=O)(O)O
IV: Nc1nc2c(ncn2COCCCP(=O)(O)O)c(=O)[nH]1
Input line: Put the molecules in ascending order of Ki. Answer by listing the labels in the requested order.
Output line: I, IV, II, III

* * *

# Run Description: Inhibition of Plasmodium falciparum HGXPRT
pKi: −log10 of the molar value.
Attribute Measured: pKi

Input line: Consider the compound Nc1nc2c(ncn2CCP(=O)(O)O)c(=O)[nH]1 and give its measured pKi.
Output line: < 4.00

Input line: Would you kindly share the measured pKi for Nc1nc2c(ncn2CCCCCCP(=O)(O)O)c(=O)[nH]1 ?
Output line: < 4.00

Input line: # pKi lookup, item O=c1[nH]cnc2c1ncn2CCCP(=O)(O)O
Output line: < 4.00

* * *

# Run Description: Inhibition of Plasmodium vivax HGPRT
Each entry below carries its recorded Ki.
Report the figure in µM without appending any unit label.

| Input Smiles | Measured Number |
| --- | --- |
| O=c1[nH]cnc2c1ncn2COCCP(=O)(O)O | 30 |
| Nc1nc(O)c2ncn(COCCP(=O)(O)O)c2n1 | 24 |

Kindly review the next compound as well.
Input line: Find the recorded Ki belonging to Nc1nc(O)c2ncn(CCCCCP(=O)(O)O)c2n1 and report it.
Output line: 6
